Each entry below lists one item and its recorded pIC50 value.
assay: Cytotoxicity against human HEK293 cells assessed as cell viability measured by Cell titre glo assay; format: toxicity, cell-based
pIC50: −log10 of the molar value.

Sample answers from the record:
- structure_smiles_string: "O=C1NN(c2ccc(Cl)cc2)C(=O)/C1=C\\c1ccc([N+](=O)[O-])o1"
  pIC50: 4.92
- structure_smiles_string: "Cc1ccc(N2NC(=O)/C(=C/c3ccc(C)c([N+](=O)[O-])c3)C2=O)cc1"
  pIC50: "< 4.00"
- structure_smiles_string: "O=C1NN(c2ccccc2)C(=O)/C1=C\\c1ccco1"
  pIC50: "< 4.00"
- structure_smiles_string: "CN(C)c1ccc(/C=C2/C(=O)NN(c3cccc(C(F)(F)F)c3)C2=O)cc1"
  pIC50: "< 4.00"

Which pIC50 value belongs to "O=C1NN(c2ccc(Cl)cc2)C(=O)/C1=C\c1ccccc1[N+](=O)[O-]" ?
< 4.00

Which pIC50 value belongs to "COC(=O)c1ccc(N2NC(=O)/C(=C/c3ccco3)C2=O)cc1" ?
< 4.00

Which pIC50 value belongs to "CN(C)c1ccc([N+](=O)[O-])cc1/C=C1/C(=O)NN(c2ccccc2)C1=O" ?
< 4.00

Which pIC50 value belongs to "CCOC(=O)c1ccc(N2NC(=O)/C(=C/c3ccc([N+](=O)[O-])o3)C2=O)cc1" ?
4.66

Which pIC50 value belongs to "CCOC(=O)c1ccc(N2NC(=O)/C(=C\c3ccccc3)C2=O)cc1" ?
< 4.00

Which pIC50 value belongs to "O=C1NC(=O)C(=C2C(=O)NN(c3ccc(F)cc3)C2=O)C(=O)N1" ?
< 4.00

Which pIC50 value belongs to "O=C1NN(c2cc(Cl)cc(Cl)c2)C(=O)/C1=C1\Nc2ccccc2C1=O" ?
4.05

Which pIC50 value belongs to "CCOC(=O)c1ccc(N2NC(=O)/C(=C/c3ccccc3O)C2=O)cc1" ?
< 4.00

Which pIC50 value belongs to "CCOC(=O)c1ccc(N2NC(=O)C(=C(C)C)C2=O)cc1" ?
< 4.00
